# MEASUREMENT TARGET: Receptor tyrosine-protein kinase erbB-2 (Homo sapiens) (UniProt P04626)
# Sequence (P04626 whole entry, looked up): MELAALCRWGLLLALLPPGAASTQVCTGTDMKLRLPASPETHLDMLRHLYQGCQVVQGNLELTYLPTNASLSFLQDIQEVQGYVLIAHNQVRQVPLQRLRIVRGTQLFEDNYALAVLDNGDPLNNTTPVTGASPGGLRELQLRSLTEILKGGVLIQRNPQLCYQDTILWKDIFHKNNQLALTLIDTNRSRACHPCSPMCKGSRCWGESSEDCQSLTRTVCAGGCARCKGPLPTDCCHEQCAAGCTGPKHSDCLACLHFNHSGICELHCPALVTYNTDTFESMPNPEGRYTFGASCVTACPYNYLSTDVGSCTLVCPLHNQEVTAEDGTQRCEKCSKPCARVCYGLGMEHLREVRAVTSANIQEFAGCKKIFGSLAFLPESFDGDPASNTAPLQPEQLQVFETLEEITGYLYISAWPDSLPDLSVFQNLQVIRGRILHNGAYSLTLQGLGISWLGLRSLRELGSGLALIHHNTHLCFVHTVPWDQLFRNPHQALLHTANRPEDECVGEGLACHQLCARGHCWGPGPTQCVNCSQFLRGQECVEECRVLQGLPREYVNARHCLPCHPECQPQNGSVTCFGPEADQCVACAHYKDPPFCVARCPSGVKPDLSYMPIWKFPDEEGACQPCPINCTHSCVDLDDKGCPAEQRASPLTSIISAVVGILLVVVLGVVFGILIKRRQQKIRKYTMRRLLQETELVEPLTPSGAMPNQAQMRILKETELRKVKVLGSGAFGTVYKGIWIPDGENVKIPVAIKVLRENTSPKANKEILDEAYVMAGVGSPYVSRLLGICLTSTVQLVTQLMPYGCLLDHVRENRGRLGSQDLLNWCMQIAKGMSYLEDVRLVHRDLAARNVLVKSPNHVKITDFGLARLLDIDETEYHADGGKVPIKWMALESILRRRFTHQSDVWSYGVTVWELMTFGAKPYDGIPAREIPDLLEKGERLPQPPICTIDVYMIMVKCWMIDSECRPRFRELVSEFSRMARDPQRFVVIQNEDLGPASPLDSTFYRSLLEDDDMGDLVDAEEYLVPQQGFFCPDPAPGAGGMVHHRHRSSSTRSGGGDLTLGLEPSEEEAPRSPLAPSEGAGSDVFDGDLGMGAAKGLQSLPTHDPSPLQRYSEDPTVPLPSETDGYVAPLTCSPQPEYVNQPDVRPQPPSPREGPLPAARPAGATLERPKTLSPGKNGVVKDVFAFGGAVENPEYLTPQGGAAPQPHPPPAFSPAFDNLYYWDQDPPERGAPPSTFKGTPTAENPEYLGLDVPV
# PROCEDURE SUMMARY: inhibitors of Her2 protein expression, primary screen, SKBR-3 cells, AlphaScreen, 66K library (AID 645);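 further: lower value means stronger loss of Her2 protein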
# APPLIED CONDITIONS: SKBR-3 HER2 protein level, 18-24 h, at 10 µM
Out of some 65,000 compounds screened, about 450 (0.69%) were called active.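 How the source made its calls: active means HER2 level under 5% of the carrier-only control; inconclusive means no clear call, values can overlap the other calls; inactive means the rest.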 The sample as a whole holds a higher share of actives than the screen did.
Reply using exactly one outcome from active, inactive

See these solved cases before continuing.
Each molecule tested received a call. Report the one for c1ccc2cc(OCCN3CCCC3)ccc2c1 .
active

Recorded test call requested for O=C(NCc1cccs1)c1ccc2c(c1)ncn2C1CCCC1
inactive

What call does the record list for O.O.O.O=S(=O)([O-])OC[C@H]1O[C@@H](O[C@]2(COS(=O)(=O)[O-])O[C@H](OS(=O)(=O)[O-])[C@@H](OS(=O)(=O)[O-])[C@@H]2OS(=O)(=O)[O-])[C@H](OS(=O)(=O)[O-])[C@@H](OS(=O)(=O)[O-])[C@@H]1OS(=O)(=O)[O-].[Al] ?
inactive

New cases:
Name the outcome recorded for CCOC(=O)Cc1c(C)nc2c(C#N)c(C)nn2c1C in the assay.
inactive

What is the recorded call for this molecule in the test? Cc1cc(=O)[nH]c(SCc2cc(Cl)ccc2OC(F)F)n1
inactive

---

# MEASUREMENT TARGET: Receptor tyrosine-protein kinase erbB-2 (Homo sapiens)
# PROCEDURE SUMMARY: inhibitors of Her2 protein expression, primary screen, SKBR-3 cells, AlphaScreen, 66K library (AID 645);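 further: lower value means stronger loss of Her2 protein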
# APPLIED CONDITIONS: SKBR-3 HER2 protein level, 18-24 h, at 10 µM
Out of some 65,000 compounds screened, about 450 (0.69%) were called active.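 Rule for the calls: active = HER2 level under 5% of the carrier-only control; inconclusive = no clear call, values can overlap the other calls; inactive = the rest.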 What follows is part of a selection rich in actives, with near analogues and random picks from the rest.
API: response.call in YES = active, NO = inactive

Reference set (8 entries):
What did this assay record as the result for COc1ccc(C(=O)N2CCC(C(=O)Nc3cccc(C)c3)CC2)cc1OC ?
NO

Assay result, entry Cc1ccc2c(CSc3nncs3)cc(=O)oc2c1 — outcome?
NO

Recorded test call requested for O=C(CSc1nnc(Cn2cnc3ccccc32)o1)c1ccccc1
NO

Recorded call for O=C(Nc1cccc(Cl)c1)OCc1ccccn1 ?
NO

What call does the record list for C=C(C)COc1ccc(-c2n[nH]c(C)c2-c2ccccc2OC)c(O)c1 ?
YES

For this compound, state the assay outcome: CCN(CC)CCCN1C(=O)C(=O)/C(=C(/O)c2c(C)nc3ccccn23)C1c1ccc(C)o1 (configuration not stated)
NO

Returns: the outcome recorded for C=C(C)COc1ccc(-c2n[nH]c(C)c2-c2ccccc2)c(O)c1 in this assay.
NO

Short answer needed: outcome of this test for CCC(=O)c1cc2c(cc1NC(=O)c1cccs1)OCCO2 ?
NO

Next:
What call does the record list for COc1ccc(-c2n[nH]c(C)c2-c2ccc(OC)c(OC)c2)c(O)c1 ?
NO

Record lookup: outcome of this test for COC(=O)[C@H](Cc1ccccc1)NC(=O)N1CC(C)OC(C)C1 (some centres not stated) ?
NO

What did this assay record as the result for COc1ccc(CC(=O)Nc2ccc(-c3nnc(-c4ccccc4)o3)cc2)cc1 ?
NO

Look up the recorded call for c1ccc2cc3[nH]c(CN4CCCCC4)nc3cc2c1 in this test.
NO

Please let me know the test result on file for CCCN1C(=O)C(NS(=O)(=O)c2ccc(N)cc2)(C(F)(F)F)C(C(=O)OC)=C1C (configuration not stated) .
NO

// param item: Cc1ccc(S(=O)(=O)N2CCC(C(=O)N[C@@H](C)C(=O)NCCc3ccccc3)CC2)cc1 ; yields the recorded call
YES

In this assay, the call recorded for Cc1nc2ccc(S(=O)(=O)NC(C(=O)N3CCCCCC3)C(C)C)cc2s1 (configuration not stated) was what?
NO

Assay result, entry c1cc(-n2cnnn2)ccc1NC1=NCCC1 — outcome?
NO
